Known pIC50 of a selection of molecules
Target: recombinant human cGAS (aa147-522) (Homo sapiens, UniProt Q8N884)
Construct: recombinant human cGAS (aa147-522); His6-SUMO (cleaved yes); made in house; host or cells: E. coli BL21/pLys
Sequence (Q8N884 147-522): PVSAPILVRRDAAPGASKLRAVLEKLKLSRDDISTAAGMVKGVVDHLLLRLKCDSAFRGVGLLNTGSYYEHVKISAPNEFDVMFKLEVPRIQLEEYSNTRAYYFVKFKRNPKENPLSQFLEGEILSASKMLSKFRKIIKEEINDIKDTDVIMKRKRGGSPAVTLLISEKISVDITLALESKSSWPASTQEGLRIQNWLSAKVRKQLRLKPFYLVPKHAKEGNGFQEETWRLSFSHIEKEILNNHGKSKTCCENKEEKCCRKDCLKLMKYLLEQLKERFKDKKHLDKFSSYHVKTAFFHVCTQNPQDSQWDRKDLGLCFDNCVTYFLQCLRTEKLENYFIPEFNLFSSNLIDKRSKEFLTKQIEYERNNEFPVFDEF
Assay: In vitro inhibition assay of cGAS activity (ATP consumption, KinaseGlo Max)
Assay type: biochemical
Conditions: Table 2, read-out: cGAS Inhibition Results IC50
pIC50: −log10 of the molar value.

Examples with answers:
molecule="CN(CCNS(=O)(=O)c1ncc[nH]1)c1cc(-n2ccnc2)c2ccc(Cl)cc2n1 [I-230]" reported="4.52 to 5.70"
molecule="O=P(O)(O)CNc1cc(-c2cn[nH]c2)c2ccc(Cl)c(Cl)c2n1 [I-254]" reported="> 5.70"
molecule="COc1ccc(-c2cc(-n3ccnc3)c3ccc(Cl)c(Cl)c3n2)cc1O [I-41]" reported="> 5.70"
molecule="O=C(O)c1cncc(-c2cc(-n3ccnc3)c3ccc(Cl)cc3n2)c1 [I-32]" reported="> 5.70"
molecule="NS(=O)(=O)CCNc1cc(-c2cn[nH]c2)c2c(Cl)cc(Cl)cc2n1 [I-263]" reported="< 4.52"

The molecule listed as CC(=O)N1CCOC(CNc2cc(-c3cn[nH]c3)c3ccc(Cl)c(Cl)c3n2)C1 (centres unmarked) [I-221] has a reported pIC50 of > 5.70

# pIC50 (molecule: O=C1CC[C@@H](CO)N1c1cc(-n2ccnc2)c2ccc(Cl)c(Cl)c2n1 [I-376] ) is < 4.52

Quick note, pIC50 for Clc1ccc2c(-n3ccnc3)cc(NCCN3CCOCC3)nc2c1Cl [I-215] landed at 4.52 to 5.70

Entry CC(C)[C@H](CS(N)(=O)=O)Nc1cc(-n2ccnc2)c2ccc(Cl)c(Cl)c2n1 [I-209] — recorded pIC50 = < 4.52

The measured pIC50 associated with O=C(O)CNCCCc1cc(-c2cn[nH]c2)c2ccc(Cl)c(Cl)c2n1 [I-336] reads 4.52 to 5.70

Short answer for Brc1ccc2c(-n3cncn3)ccnc2c1 [I-418] : pIC50 was < 4.52

###

Molecular target: recombinant human cGAS (aa147-522) (Homo sapiens)
Construct: recombinant human cGAS (aa147-522); His6-SUMO (cleaved yes); made in house; host or cells: E. coli BL21/pLys
Experiment: In vitro inhibition assay of cGAS activity (ATP consumption, KinaseGlo Max)
Assay type: biochemical
Conditions: Table 2, read-out: cGAS Inhibition Results IC50
Listed here: items and their measured IC50.

compound=O=C(O)[C@@H]1C[C@@H](F)CN1c1cc(-c2cn[nH]c2)c2ccc(Cl)c(Cl)c2n1 reported="< 2 µM"
compound=Nc1cccc(-c2cc(-n3ccnc3)c3ccc(Cl)cc3n2)c1 reported="2 to 30 µM"
compound=O=S(=O)(O)CCN(Cc1ccccc1)c1cc(-n2ccnc2)c2ccc(Cl)c(Cl)c2n1 reported="2 to 30 µM"

Here is another compound to look at.
Summary line: NS(=O)(=O)CC(Cc1ccccc1)Nc1cc(-n2ccnc2)c2ccc(Cl)c(Cl)c2n1 (stereo not drawn) , recombinant human cGAS (aa147-522) (Homo sapiens), reported IC50 = 2 to 30 µM

###

Listing: IC50 of selected compounds
Molecular target: recombinant human cGAS (aa147-522) (Homo sapiens, UniProt Q8N884)
Construct: recombinant human cGAS (aa147-522); His6-SUMO (cleaved yes); made in house; host or cells: E. coli BL21/pLys
Experiment: In vitro inhibition assay of cGAS activity (ATP consumption, KinaseGlo Max)
Type: biochemical
Conditions: Table 3, read-out: cGAS Inhibition Results IC50

Previously resolved entries follow.
compound="O=C(O)c1ccccc1OCCNc1cc(-n2ccnc2)c2ccc(Cl)c(Cl)c2n1 [I-886]" measuredproperty=IC50 reported="< 2 µM"
compound="O=C(O)COC[C@H]1CCCN(c2cc(-c3cn[nH]c3)c3ccc(Cl)c(Cl)c3n2)C1 [I-746]" measuredproperty=IC50 reported="< 2 µM"
compound="C[C@H]1CN(c2cc(-n3ccnc3)c3ccc(Cl)c(Cl)c3n2)C[C@@H]1COCCC(=O)O [I-814]" measuredproperty=IC50 reported="< 2 µM"
compound="COC(=O)[C@@H]1[C@@H](OC(C)=O)CCN1c1cc(-n2ccnc2)c2ccc(Cl)c(Cl)c2n1 [I-642]" measuredproperty=IC50 reported="2 to 30 µM"

We now examine a further compound.
// assay recombinant human cGAS (aa147-522) (Homo sapiens, UniProt Q8N884), entry CN(CCNC(=O)c1cccc(C(=O)O)c1)c1cc(-n2ccnc2)c2ccc(Cl)c(Cl)c2n1 [I-620] , IC50 value = 2 to 30 µM

###

As shown below, each of these molecules has a reported IC50 value.
Target: recombinant human cGAS (aa147-522) (Homo sapiens, UniProt Q8N884)
Construct: recombinant human cGAS (aa147-522); His6-SUMO (cleaved yes); made in house; host or cells: E. coli BL21/pLys
Assay: In vitro inhibition assay of cGAS activity (ATP consumption, KinaseGlo Max)
Type: biochemical
Settings: Table 3, read-out: cGAS Inhibition Results IC50

molecule="CN(CCC(=O)O)C(=O)C[C@@H]1CCCN1c1cc(-n2ccnc2)c2ccc(Cl)c(Cl)c2n1 [I-525]" targetorsystem="recombinant human cGAS (aa147-522) (Homo sapiens, UniProt Q8N884)" measuredproperty=IC50 reported="< 2000 nM"

Next:
// IC50 value for COC(=O)CC[C@@H]1CCCN1c1cc(-n2ccnc2)c2ccc(Cl)c(Cl)c2n1 [I-680] : 2000 to 30000 nM

###

Biological target: recombinant human cGAS (aa147-522) (Homo sapiens, UniProt Q8N884)
Construct: recombinant human cGAS (aa147-522); His6-SUMO (cleaved yes); made in house; host or cells: E. coli BL21/pLys
Experiment: In vitro inhibition assay of cGAS activity (ATP consumption, KinaseGlo Max)
Format: biochemical
Conditions: Table 3, read-out: cGAS Inhibition Results IC50
Protocol: Expression and Purification of Recombinant cGAS Protein: cDNA encoding full-length or amino acids […] of human cGAS was inserted into a modified pET28a vector containing an in-frame His6-SUMO tag. The E. coli strain BL21/pLys harboring the plasmid was induced with 0.5 mM IPTG at 18° C. overnight. His6-SUMO tag was removed by a SUMO protease digestion following purification of the His6-SUMO-cGAS as described previously (Sun et al, 2013, Science 339, 786). […]
pIC50: −log10 of the molar value.
The reader will find reported pIC50 values listed item by item below.

Answered cases to consult:
compound="O=C(O)CCOC[C@@H]1CCCN1c1cc(-c2cn[nH]c2)c2c(Cl)cc(Cl)cc2n1 [I-855]" reported="4.52 to 5.70"
compound="COC(=O)C1N(c2cc(-n3ccnc3)c3ccc(Cl)c(Cl)c3n2)CCC1(C)C (stereo not shown) [I-587]" reported="4.52 to 5.70"
compound="O=C(O)c1ccccc1S(=O)(=O)N[C@@H]1C[C@@H](C(=O)O)N(c2cc(-n3ccnc3)c3ccc(Cl)c(Cl)c3n2)C1 [I-509]" reported="> 5.70"

Now for another entry.
The recorded pIC50 for CC(C)(C)c1ccc2c(-n3ccnc3)cc(N3CCC[C@H]3COCCC(=O)O)nc2c1 [I-858] is < 4.52

###

Listed below: IC50 values for each entry.
Target: recombinant human cGAS (aa147-522) (Homo sapiens, UniProt Q8N884)
Construct: recombinant human cGAS (aa147-522); His6-SUMO (cleaved yes); made in house; host or cells: E. coli BL21/pLys
Experiment: In vitro inhibition assay of cGAS activity (ATP consumption, KinaseGlo Max)
Type: biochemical
Details: Table 3, read-out: cGAS Inhibition Results IC50

Observe how each entry below is paired with its result.
compound=O=C(O)[C@@H]1CSCN1c1cc(-n2ccnc2)c2ccc(Cl)c(Cl)c2n1 reported="< 2 µM"
compound=CN(CCC(=O)O)C(=O)CCN(C)c1cc(-n2ccnc2)c2ccc(Cl)c(Cl)c2n1 reported="< 2 µM"
compound="CN(CCNC(=O)C1CCC(C(=O)O)C1)c1cc(-n2ccnc2)c2ccc(Cl)c(Cl)c2n1 (stereo not shown)" reported="2 to 30 µM"
compound=O=C(O)Cc1cc(F)cc(CNc2cc(-n3ccnc3)c3ccc(Cl)c(Cl)c3n2)c1 reported="< 2 µM"

Sure, the documented IC50 for CO[C@H]1C[C@@H](COCCC(=O)O)N(c2cc(-n3ccnc3)c3ccc(Cl)c(Cl)c3n2)C1 is < 2 µM

So, O=C(O)C12CC(CN1c1cc(-n3ccnc3)c3ccc(Cl)c(Cl)c3n1)C2 ? Its IC50 was 2 to 30 µM

Short answer for O=C(O)CCO[C@@H]1CCN(c2cc(-n3ccnc3)c3ccc(Cl)c(Cl)c3n2)C1 : IC50 was 2 to 30 µM

Entry CCN(CCOCCC(=O)O)c1cc(-n2ccnc2)c2ccc(Cl)c(Cl)c2n1 , IC50 reported as < 2 µM

Per the records, this compound ( COC(=O)/C=C/[C@@H]1CCCN1c1cc(-n2ccnc2)c2ccc(Cl)c(Cl)c2n1 ) has IC50 equal to 2 to 30 µM

Entry C[C@]1(C(=O)O)CCCN1c1cc(-n2ccnc2)c2ccc(Cl)c(Cl)c2n1 ; IC50 = > 30 µM
